B1: library; numbered along this chain (parent)
chain: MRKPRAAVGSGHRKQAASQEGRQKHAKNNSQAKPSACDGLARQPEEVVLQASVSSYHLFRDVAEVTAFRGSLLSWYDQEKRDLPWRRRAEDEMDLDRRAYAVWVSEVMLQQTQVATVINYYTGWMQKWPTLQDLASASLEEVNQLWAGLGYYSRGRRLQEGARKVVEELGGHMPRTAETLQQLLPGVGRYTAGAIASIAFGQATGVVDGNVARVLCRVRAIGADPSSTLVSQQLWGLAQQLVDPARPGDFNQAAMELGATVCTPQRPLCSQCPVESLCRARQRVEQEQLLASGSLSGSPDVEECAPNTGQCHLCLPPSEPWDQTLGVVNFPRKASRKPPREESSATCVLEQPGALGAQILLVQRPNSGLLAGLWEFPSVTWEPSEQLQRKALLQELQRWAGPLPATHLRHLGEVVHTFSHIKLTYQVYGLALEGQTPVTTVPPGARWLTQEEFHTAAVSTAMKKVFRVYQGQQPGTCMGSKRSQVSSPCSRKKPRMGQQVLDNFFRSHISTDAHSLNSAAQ

Variants of: B1
Assay: 8OG:A repair function score (normalized; synonymous = 0, nonsense = -1) (normalized log-likelihood score); higher = more repair activity (WT-like);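 note: cells sorted at 72 h after reporter transfection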
Conditions: with 8OG:A DNA repair reporter (GFP) in HEK-293 MUTYH KO cells
# 8OG:A repair function score per entry
endpoint.name: 8OG:A repair function score

INSERT INTO measurements (mutation_annotation, observed_measurement) VALUES
  ('L349E', -0.993),
  ('P247T', -0.856),
  ('P267C', -0.372),
  ('E90T', -0.0178),
  ('T112S', -0.314),
  ('V230T', -0.281),
  ('S71R', -0.0148),
  ('G258I', -1.02),
  ('W103P', -1.09),
  ('L237Y', -0.0407),
  ('G368C', -0.369),
  ('E302S', -0.307),
  ('A67P', -0.143),
  ('G297C', 0.00942),
  ('E79C', -0.0344),
  ('A391I', 0.114),
  ('A400M', 0.54),
  ('E45A', -0.024),
  ('Y428P', -1.18),
  ('P331S', -0.197),
  ('P443I', 0.0878),
  ('S197Q', -1.14);
